Reference source: paper PMC5785503

target: Nluc-H1R (Homo sapiens); test: NanoBRET saturation binding in whole HEK293T cells; settings: HEK293T cells expressing Nluc-H1R, mean ± SEM, read-out: NanoBRET saturation pKD (converted)
Sequence (P35367 2-487 limits assumed): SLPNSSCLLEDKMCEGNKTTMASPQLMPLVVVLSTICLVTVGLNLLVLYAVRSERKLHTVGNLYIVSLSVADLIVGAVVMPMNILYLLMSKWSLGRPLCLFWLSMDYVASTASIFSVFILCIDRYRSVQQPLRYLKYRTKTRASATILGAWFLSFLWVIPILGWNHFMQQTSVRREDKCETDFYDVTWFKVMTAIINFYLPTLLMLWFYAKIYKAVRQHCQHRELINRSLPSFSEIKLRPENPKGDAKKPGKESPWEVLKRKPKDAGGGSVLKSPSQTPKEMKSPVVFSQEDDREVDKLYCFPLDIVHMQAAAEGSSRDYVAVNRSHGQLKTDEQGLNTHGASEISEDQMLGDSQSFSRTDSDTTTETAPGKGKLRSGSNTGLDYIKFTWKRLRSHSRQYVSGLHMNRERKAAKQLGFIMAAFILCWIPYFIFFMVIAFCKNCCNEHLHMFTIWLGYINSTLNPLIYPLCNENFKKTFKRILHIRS
For each of the molecules below, state its Kd.
Field format: number, assumed µM, no unit text.

Entry `COc1ccc(CN(CCN(C)CCC(=O)NCCCC(=O)N[C@@H](C)C(=O)N[C@@H](C)C(=O)NCCNC(=O)CCCCCNC(=O)COc2ccc(/C=C/C3=[N+]4C(=Cc5ccc(-c6cccs6)n5[B-]4(F)F)C=C3)cc2)c2ccccn2)cc1` : reported Kd = ?
0.0501

Fill in the blank: the reported Kd of CC(O)[C@H](NC(=O)[C@H](C)NC(=O)[C@H](CC(N)=O)NC(=O)CCN1CCC(Oc2ccccc2Cc2ccccc2)CC1)C(=O)NCCNC(=O)CCCCCNC(=O)COc1ccc(/C=C/C2=[N+]3C(=Cc4ccc(-c5cccs5)n4[B-]3(F)F)C=C2)cc1 (stereo partly drawn) is ____.
0.0316

Query (molecule): `NC(=O)C[C@H](NC(=O)CNC(=O)CNC(=O)CCN1CCC(Oc2ccccc2Cc2ccccc2)CC1)C(=O)NCCNC(=O)CCCCCNC(=O)COc1ccc(/C=C/C2=[N+]3C(=Cc4ccc(-c5cccs5)n4[B-]3(F)F)C=C2)cc1` ; field requested: Kd
0.0251

Quick one: Kd of `COc1ccc(CN(CCN(C)CCC(=O)N[C@@H](C)C(=O)N[C@@H](C)C(=O)N[C@@H](CO)C(=O)NCCNC(=O)CCCCCNC(=O)COc2ccc(/C=C/C3=[N+]4C(=Cc5ccc(-c6cccs6)n5[B-]4(F)F)C=C3)cc2)c2ccccn2)cc1` ?
0.0631

For the molecule shown here, `COc1ccc(CN(CCN(C)CCC(=O)N[C@@H](C)C(=O)N[C@@H](C)C(=O)NCCNC(=O)CCCCCNC(=O)COc2ccc(/C=C/C3=[N+]4C(=Cc5ccc(-c6cccs6)n5[B-]4(F)F)C=C3)cc2)c2ccccn2)cc1` , give the reported Kd.
0.00794

Please report the recorded Kd for `C[C@H](NC(=O)CCN1CCC(Oc2ccccc2Cc2ccccc2)CC1)C(=O)N[C@@H](C)C(=O)N[C@@H](C)C(=O)NCCNC(=O)CCCCCNC(=O)COc1ccc(/C=C/C2=[N+]3C(=Cc4ccc(-c5cccs5)n4[B-]3(F)F)C=C2)cc1` .
0.00794
